Target: AMPA receptor
Assay: Binding experiment against AMPA receptor ([3H]-AMPA binding, crude synaptic membranes from cerebral cortex)
Details: rat cerebral cortex crude synaptic membranes; [3H]-AMPA 5 nmol/L, potassium thiocyanate 100 mmol/L, 30 minutes at 0° C.; IC50 converted to Ki
value type: Ki (nM)

O=C(Nc1ccccc1)OCc1cn(-c2cc3cc(C(=O)O)c(=O)[nH]c3cc2[N+](=O)[O-])cn1 | 22.4
O=C(Nc1cccc(C(=O)O)c1)OCc1cn(-c2cc3cc(C(=O)O)c(=O)[nH]c3cc2[N+](=O)[O-])cn1 | 17.8
CCOC(=O)c1ccc(NC(=O)OCc2cn(-c3cc4cc(C(=O)OCC)c(=O)[nH]c4cc3C(F)(F)F)cn2)cc1 | 18.4

A: O=C(Nc1ccccc1F)OCc1cn(-c2cc3cc(C(=O)O)c(=O)[nH]c3cc2[N+](=O)[O-])cn1
B: O=C(Nc1ccc(C(=O)O)cc1)OCc1cn(-c2cc3cc(C(=O)O)c(=O)[nH]c3cc2[N+](=O)[O-])cn1
When A and B are compared, which has the higher number for Ki? Answer = label.
B
(B: 16.5 nM, A: 8.22 nM)

====

Counter-ions that a name gives are not always drawn.
value type: melting point

// solved cases for melting point follow
O=C(Nc1ccc(C(=O)O)cc1)OCc1cn(-c2cc3cc(C(=O)O)c(=O)[nH]c3cc2C(F)(F)F)cn1 [Example 19] | 218 to 220 °C
O=C(NCc1ccccc1)OCc1cn(-c2cc3cc(C(=O)O)c(=O)[nH]c3cc2C(F)(F)F)cn1 [Example 32] | 169 to 171 °C
O=C(Nc1ccccc1F)OCc1cn(-c2cc3cc(C(=O)O)c(=O)[nH]c3cc2[N+](=O)[O-])cn1 (as salt: HCl) [Example 6] | 226 to 228 °C
O=C(Nc1ccccc1)OCc1cn(-c2cc3cc(C(=O)O)c(=O)[nH]c3cc2Cl)cn1 [Example 41] | 180 to 182 °C
O=C(Nc1cccc(C(=O)O)c1)OCc1cn(-c2cc3cc(C(=O)O)c(=O)[nH]c3cc2Cl)cn1 [Example 43] | 263 to 265 °C (dec.)

GET /values?readout=melting point&item= O=C(Nc1ccc(C(=O)O)cc1)OCc1cn(-c2cc3cc(C(=O)O)c(=O)[nH]c3cc2Cl)cn1 [Example 44]
249 to 251 °C

Continue with O=C(Nc1ccccc1Br)OCc1cn(-c2cc3cc(C(=O)O)c(=O)[nH]c3cc2C(F)(F)F)cn1 [Example 25]
145 to 147 °C
